These entries and their values trace back to patent EP0908457B1.

# System: Echinochloa oryzoides (Ard.) Fritsch.
# assay.info: Preemergence weed control under flooded paddy conditions, ECHORC (Watergrass (Calif.))
# Assay type: in vivo
# experimental.conditions: Rate 0.0320 kg/ha; preemergence, flooded paddy; rated three to four weeks after treatment
readout: ECHORC herbicidal effect rating
Numbers only.

smiles.text: COC(=O)COCc1nsc2ccc(-n3c(=O)cc(C(F)(F)F)n(C)c3=O)cc12
ECHORC herbicidal effect rating: 0.0

Required: ECHORC herbicidal effect rating, one value per compound below.
1. Cc1ccc(OCC(=O)OC(C)(C)C)c(-c2noc3ccc(-n4c(=O)cc(C(F)(F)F)n(C)c4=O)c(Cl)c23)c1
2. COC(=O)COc1c(-c2nsc3ccc(-n4c(=O)cc(C(F)(F)F)n(C)c4=O)cc23)ccc(C)c1C
3. CNC.Cn1c(C(F)(F)F)cc(=O)n(-c2ccc3snc(COCC(=O)O)c3c2)c1=O
4. Cn1c(C(F)(F)F)cc(=O)n(-c2ccc3snc(CC=NO)c3c2)c1=O
5. C=Cc1nsc2ccc(-n3c(=O)cc(C(F)(F)F)n(C)c3=O)cc12

Output:
0.0
3.3
0.0
0.0
4.0

---

# Tested on: Cyperus serotinus, Rottb.
# assay.info: Preemergence weed control under flooded paddy conditions, CYPSE (Flatsedge)
# Type: in vivo
# experimental.conditions: 0.1250 kg/ha, preemergence, rated three to four weeks after treatment
readout: CYPSE herbicidal rating
Numbers only.

Completed entries (count: 3):
smiles.text: COc1cc(Cl)c(C)cc1-c1nsc2ccc(-n3c(=O)cc(C(F)(F)F)n(C)c3=O)cc12
CYPSE herbicidal rating: 4.5
--
smiles.text: COC(=O)c1nsc2cc(F)c(-n3c(=O)cc(C(F)(F)F)n(C)c3=O)cc12
CYPSE herbicidal rating: 9.0
--
smiles.text: COC(=O)COc1cc(C)ccc1-c1nsc2cc(F)c(-n3c(=O)cc(C(F)(F)F)n(C)c3=O)cc12
CYPSE herbicidal rating: 9.0

Task: Could you tell me which CYPSE herbicidal rating is on file for Cn1c(C(F)(F)F)cc(=O)n(-c2ccc3snc(COC(=O)c4cc(Cl)nc(Cl)c4)c3c2)c1=O ?
Output: 0.0

---

I'd be grateful if you could share measured herbicidal effect rating ORYSAT for these entries.
# Test system: Oryza sativa, (L.) Tebonnet
# assay.info: Rice tolerance to post-transplant applications under flooded paddy conditions (Example 187), ORYSAT (Rice, Tebonnet); also: meaning of each grade not given here
# experimental.conditions: Rate 0.2500 kg/ha, rated three to four weeks after treatment
One number for each entry.

Completed entries (count: 2):
smiles.text: Cn1c(C(F)(F)F)cc(=O)n(-c2ccc3snc(C(=O)Oc4ccc(F)cc4)c3c2)c1=O
readout: herbicidal effect rating ORYSAT
assay.value: 2.5

smiles.text: Cn1c(C(F)(F)F)cc(=O)n(-c2ccc3snc(COCc4ccc(Cl)cc4)c3c2)c1=O
readout: herbicidal effect rating ORYSAT
assay.value: 3.5

Then there is this compound:
Task: Could you tell me which herbicidal effect rating ORYSAT is on file for Cn1c(C(F)(F)F)cc(=O)n(-c2ccc3snc(C(C#N)=Cc4ccccn4)c3c2)c1=O ?
Output: 4.0

---

I'd be grateful if you could share measured herbicidal effect rating, CYPSE for these entries.
# Test system: Cyperus serotinus, Rottb.
# assay.info: Preemergence weed control under flooded paddy conditions, CYPSE (Flatsedge); as to herbicidal effect rating, CYPSE: meaning of each grade not given here
# Type: in vivo
# experimental.conditions: Rate 0.2500 kg/ha, preemergence, rated 3-4 weeks after treatment
One number for each entry.

Completed entries (count: 3):
compound: C=CS(=O)(=O)NC(=O)COc1ccc(C)cc1-c1nsc2ccc(-n3c(=O)cc(C(F)(F)F)n(C)c3=O)cc12
experimental.system: Cyperus serotinus, Rottb.
herbicidal effect rating, CYPSE: 2.0
//
compound: Cc1ccc(OCC(=O)NS(=O)(=O)C(C)C)c(-c2nsc3ccc(-n4c(=O)cc(C(F)(F)F)n(C)c4=O)cc23)c1
experimental.system: Cyperus serotinus, Rottb.
herbicidal effect rating, CYPSE: 9.0
//
compound: CC=CCOC(=O)C(C)(C)Oc1ccc(C)cc1-c1nsc2ccc(-n3c(=O)cc(C(F)(F)F)n(C)c3=O)cc12
experimental.system: Cyperus serotinus, Rottb.
herbicidal effect rating, CYPSE: 0.0

Required: herbicidal effect rating, CYPSE, one value per compound below.
1. Cc1ccc(OCC(=O)c2ccc(OC(F)F)cc2)c(-c2nsc3ccc(-n4c(=O)cc(C(F)(F)F)n(C)c4=O)cc23)c1
2. Cc1ccc(OCC(=O)OCCCCCO[Si](C)(C)C(C)(C)C)c(-c2nsc3ccc(-n4c(=O)cc(C(F)(F)F)n(C)c4=O)cc23)c1
3. Cc1ccc(OCC(=O)OCC2CCOC2)c(-c2nsc3ccc(-n4c(=O)cc(C(F)(F)F)n(C)c4=O)cc23)c1 (racemic)
4. C=CC(CCCC)OC(=O)COc1ccc(C)cc1-c1nsc2ccc(-n3c(=O)cc(C(F)(F)F)n(C)c3=O)cc12 (centres unmarked)

Output:
[0.0, 0.0, 5.0, 0.0]

Required: herbicidal effect rating, CYPSE, one value per compound below.
1. CSCCCCOC(=O)COc1ccc(C)cc1-c1nsc2ccc(-n3c(=O)cc(C(F)(F)F)n(C)c3=O)cc12
2. CON(C)C(=O)/C=C/c1nsc2ccc(-n3c(=O)cc(C(F)(F)F)n(C)c3=O)cc12
3. C#CCOC(=O)C(C)(C)Oc1ccc(C)cc1-c1nsc2ccc(-n3c(=O)cc(C(F)(F)F)n(C)c3=O)cc12
4. Cc1ccc(OCC(=O)OCCC2OCC(C)(C)CO2)c(-c2nsc3ccc(-n4c(=O)cc(C(F)(F)F)n(C)c4=O)cc23)c1
5. CCCCCCCCCOC(=O)COc1ccc(C)cc1-c1nsc2ccc(-n3c(=O)cc(C(F)(F)F)n(C)c3=O)cc12
6. COCCCOCCCOC(=O)COc1ccc(C)cc1-c1nsc2ccc(-n3c(=O)cc(C(F)(F)F)n(C)c3=O)cc12

Output:
1: 0.0; 2: 0.0; 3: 0.0; 4: 9.0; 5: 0.0; 6: 9.0

Task: Could you tell me which herbicidal effect rating, CYPSE is on file for Cn1c(C(F)(F)F)cc(=O)n(-c2ccc3snc(-c4ccccc4OCC(N)=O)c3c2)c1=O ?
Output: 9.0

---

# Tested on: Cyperus serotinus, Rottb.
# assay.info: Preemergence weed control under flooded paddy conditions, CYPSE (Flatsedge); as to herbicidal effect rating, CYPSE: meaning of each grade not given here
# Assay type: in vivo
# experimental.conditions: Rate 0.0320 kg/ha, preemergence weeds, rated three to four weeks after treatment
readout: herbicidal effect rating, CYPSE
One number for each entry.

molecule: CC(Oc1ccccc1-c1nsc2ccc(-n3c(=O)cc(C(F)(F)F)n(C)c3=O)cc12)C(=O)O (stereo not drawn)
readout: herbicidal effect rating, CYPSE
assay.value: 0.0
--
molecule: Cn1c(C(F)(F)F)cc(=O)n(-c2ccc3snc(C(=O)NS(C)(=O)=O)c3c2)c1=O
readout: herbicidal effect rating, CYPSE
assay.value: 5.0

Task: Could you tell me which herbicidal effect rating, CYPSE is on file for COc1cccc(-c2nsc3ccc(-n4c(=O)cc(C(F)(F)F)n(C)c4=O)cc23)c1 ?
Output: 9.0

---

# Tested on: Monochoria vaginalis, Presl.
# assay.info: Preemergence weed control under flooded paddy conditions, MOOVA (Monochoria)
# Type: in vivo
# experimental.conditions: Rate 0.0313 kg/ha; preemergence, flooded paddy; rated three to four weeks after treatment
I'd be grateful if you could share measured MOOVA herbicidal effect rating for these entries.

Completed entries (count: 4):
compound: C=CCCOCc1nsc2ccc(-n3c(=O)cc(C(F)(F)F)n(C)c3=O)cc12
experimental.system: Monochoria vaginalis, Presl.
MOOVA herbicidal effect rating: 9.0
--
compound: Cn1c(C(F)(F)F)cc(=O)n(-c2ccc3snc(COCCCCl)c3c2)c1=O
experimental.system: Monochoria vaginalis, Presl.
MOOVA herbicidal effect rating: 9.0
--
compound: C=C(C)C1CC=C(COCc2nsc3ccc(-n4c(=O)ccn(C)c4=O)cc23)CC1 (centres unmarked)
experimental.system: Monochoria vaginalis, Presl.
MOOVA herbicidal effect rating: 9.0
--
compound: C=C(C(=O)OC)C(C)OCc1nsc2ccc(-n3c(=O)cc(C(F)(F)F)n(C)c3=O)cc12 (centres unmarked)
experimental.system: Monochoria vaginalis, Presl.
MOOVA herbicidal effect rating: 4.0

Then there is this compound:
Task: Could you tell me which MOOVA herbicidal effect rating is on file for Cn1c(C(F)(F)F)cc(=O)n(-c2ccc3snc(CO)c3c2)c1=O ?
Output: 8.0

---

# Tested on: Sagittaria pygmaea, L.
# assay.info: Preemergence weed control under flooded paddy conditions, SAGPY (Arrowhead (Pygmaea)); also: meaning of each grade not given here
# Type: in vivo
# experimental.conditions: Rate 0.2500 kg/ha; preemergence, flooded paddy; rated three to four weeks after treatment
I'd be grateful if you could share measured herbicidal effect rating, SAGPY for these entries.
Give bare numbers.

Completed entries (count: 3):
compound: Cn1c(C(F)(F)F)cc(=O)n(-c2ccc3snc(COC(=O)Nc4ccccc4)c3c2)c1=O
herbicidal effect rating, SAGPY: 9.0
//
compound: COc1cc2c(cc1-c1nsc3ccc(-n4c(=O)cc(C(F)(F)F)n(C)c4=O)cc13)CCC2
herbicidal effect rating, SAGPY: 9.0
//
compound: CCCCCCCOC(=O)c1nsc2ccc(-n3c(=O)cc(C(F)(F)F)n(C)c3=O)cc12
herbicidal effect rating, SAGPY: 7.0

Required: herbicidal effect rating, SAGPY, one value per compound below.
1. CCCCS(=O)(=O)OCc1nsc2ccc(-n3c(=O)cc(C(F)(F)F)n(C)c3=O)cc12
2. C=CCONC(=O)c1nsc2ccc(-n3c(=O)cc(C(F)(F)F)n(C)c3=O)cc12
3. Cc1ccc(OC(C)C(=O)NS(=O)(=O)C(C)C)c(-c2nsc3ccc(-n4c(=O)cc(C(F)(F)F)n(C)c4=O)cc23)c1 (stereo not drawn)
4. CCCCCCCCCCCCS(=O)(=O)NC(=O)c1nsc2ccc(-n3c(=O)cc(C(F)(F)F)n(C)c3=O)cc12
5. COc1ccc(O)c(-c2nsc3ccc(-n4c(=O)cc(C(F)(F)F)n(C)c4=O)cc23)c1
6. Cn1c(C(F)(F)F)cc(=O)n(-c2ccc3snc(COC(=O)CCl)c3c2)c1=O
7. Cn1c(C(F)(F)F)cc(=O)n(-c2ccc3snc(C(C#N)=Cc4cnc[nH]4)c3c2)c1=O
8. CC(C)S(=O)(=O)OCc1nsc2ccc(-n3c(=O)cc(C(F)(F)F)n(C)c3=O)cc12

Output:
1. 7.0
2. 0.0
3. 0.0
4. 6.0
5. 5.0
6. 9.0
7. 0.0
8. 9.0

Required: herbicidal effect rating, SAGPY, one value per compound below.
1. CON(C)C(=O)COc1ccccc1-c1nsc2ccc(-n3c(=O)cc(C(F)(F)F)n(C)c3=O)cc12
2. CCS(=O)(=O)NC(=O)C(C)Oc1ccc(C)cc1-c1nsc2ccc(-n3c(=O)cc(C(F)(F)F)n(C)c3=O)cc12 (stereo not drawn)
3. Cn1c(C(F)(F)F)cc(=O)n(-c2ccc3snc(C(Cc4ccccc4)S(C)(=O)=O)c3c2)c1=O (stereo not drawn)
4. Cn1c(C(F)(F)F)cc(=O)n(-c2ccc3snc(COCc4cccc([N+](=O)[O-])c4)c3c2)c1=O

Output:
[9.0, 0.0, 0.0, 0.0]
